# TEST SYSTEM: ALDH2 (Homo sapiens, UniProt P05091)
# Sequence (P05091 18-517): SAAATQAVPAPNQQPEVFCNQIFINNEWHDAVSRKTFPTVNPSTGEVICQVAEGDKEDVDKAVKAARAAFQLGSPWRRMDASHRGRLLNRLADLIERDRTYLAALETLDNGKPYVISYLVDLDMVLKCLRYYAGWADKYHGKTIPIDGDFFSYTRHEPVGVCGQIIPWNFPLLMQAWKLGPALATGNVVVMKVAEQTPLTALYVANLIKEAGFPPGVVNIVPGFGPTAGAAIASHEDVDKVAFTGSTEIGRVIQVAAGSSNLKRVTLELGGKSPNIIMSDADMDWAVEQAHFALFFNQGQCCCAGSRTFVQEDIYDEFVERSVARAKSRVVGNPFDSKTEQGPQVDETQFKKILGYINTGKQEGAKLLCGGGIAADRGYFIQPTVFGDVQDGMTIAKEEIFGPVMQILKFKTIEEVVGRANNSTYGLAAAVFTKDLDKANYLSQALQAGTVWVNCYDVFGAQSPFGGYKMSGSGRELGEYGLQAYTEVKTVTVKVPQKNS
# EXPERIMENT: QuantiChrom ALDH inhibitor screening kit, diaphorase/MTT-coupled colorimetric assay ([…] nm), recombinant enzyme
pIC50: −log10 of the molar value.
PROPERTY NAME: pIC50

[[record]]
compound = "O=c1c(O)c(-c2ccc(O)c(O)c2)oc2cc(O)cc(O)c12"
test_system = "ALDH2 (Homo sapiens, UniProt P05091)"
measured_result = 4.58

[[record]]
compound = "O=C(O)[C@H]1O[C@@H](Oc2c(-c3ccc(O)c(O)c3)oc3cc(O)cc(O)c3c2=O)[C@H](O)[C@@H](O)[C@@H]1O [compound 9, quercetin-3-glucuronide]"
test_system = "ALDH2 (Homo sapiens, UniProt P05091)"
measured_result = 5.02

